Reference for the values: paper PMC7092840

# measurement-protocol: Aqueous solubility of hydrochloride salt
# Type: physicochemical
# condition-summary: product of calculated pKa and solubility at pH 5.0
Catalogue of pKa × solubility in water at pH 5.0 readings, one per entry.
measure: pKa × solubility in water at pH 5.0

INSERT INTO measurements (cpd_smiles, val) VALUES
  ('CCCCc1oc2ccccc2c1C(=O)c1cc(I)c(OCCN(C(C)C)C(C)C)c(I)c1.Cl', 2.07),
  ('CCCCc1oc2ccccc2c1C(=O)c1cc(I)c(OCCN2CCOCC2)c(I)c1', 0.55),
  ('CCCCc1oc2ccccc2c1C(=O)c1cc(I)c(OCCN2CCCCC2)c(I)c1.Cl', 11.88),
  ('CCCCc1oc2ccccc2c1C(=O)c1cc(I)c(OCCN(C)C)c(I)c1', 17.50),
  ('CCCCc1oc2ccccc2c1C(=O)c1cc(I)c(OCCN2CCCC2)c(I)c1.Cl', 9.22);

###

Catalogue of Aqueous solubility of hydrochloride salt At pH 7.4 readings, one per entry.
# measurement-protocol: Aqueous solubility of hydrochloride salt
# Format: physicochemical
# condition-summary: 22 °C, 5 mM K2PO4 adjusted to pH 7.4, methanol as cosolvent
Marks after values point to notes of the source that are not given here.
measure: Aqueous solubility of hydrochloride salt At pH 7.4

INSERT INTO results (molecule, val) VALUES
  ('CCCCc1oc2ccccc2c1C(=O)c1cc(I)c(OCCN2CCOCC2)c(I)c1 [MOPAM]', '0.015 ^b μM'),
  ('CCCCc1oc2ccccc2c1C(=O)c1cc(I)c(OCCN(C)C)c(I)c1 [MeAMI]', '0.051 ^b μM'),
  ('CCCCc1oc2ccccc2c1C(=O)c1cc(I)c(OCCN2CCCCC2)c(I)c1.Cl [PIPAM]', '0.023 ^b μM'),
  ('CCCCc1oc2ccccc2c1C(=O)c1cc(I)c(OCCN(C(C)C)C(C)C)c(I)c1.Cl [DIPAM]', '0.014 ^b μM'),
  ('CCCCc1oc2ccccc2c1C(=O)c1cc(I)c(OCCN2CCCC2)c(I)c1.Cl [PYRAM]', '0.049 ^b μM');

###

Catalogue of Aqueous solubility of hydrochloride salt At pH 5.0 readings, one per entry.
# measurement-protocol: Aqueous solubility of hydrochloride salt
# Format: physicochemical
# condition-summary: 22 °C, 5 mM K2PO4 adjusted to pH 5.0, methanol as cosolvent
Marks after values point to notes of the source that are not given here.
measure: Aqueous solubility of hydrochloride salt At pH 5.0

INSERT INTO results (cpd_smiles, val) VALUES
  ('CCCCc1oc2ccccc2c1C(=O)c1cc(I)c(OCCN2CCCCC2)c(I)c1.Cl', '2.22 ^b μM'),
  ('CCCCc1oc2ccccc2c1C(=O)c1cc(I)c(OCCN2CCOCC2)c(I)c1', '0.17 ^b μM'),
  ('CCCCc1oc2ccccc2c1C(=O)c1cc(I)c(OCCN2CCCC2)c(I)c1.Cl', '1.86 ^b μM'),
  ('CCCCc1oc2ccccc2c1C(=O)c1cc(I)c(OCCN(C(C)C)C(C)C)c(I)c1.Cl', '0.23 ^b μM'),
  ('CCCCc1oc2ccccc2c1C(=O)c1cc(I)c(OCCN(C)C)c(I)c1', '2.21 ^b μM');

###

# measurement-protocol: Aqueous solubility of hydrochloride salt
# Type: physicochemical
# condition-summary: phosphate buffer, 22 °C, pH 5
measure: solubility (µM)

INSERT INTO measurements (compound, val) VALUES
  ('CCCCc1oc2ccccc2c1C(=O)c1cc(I)c(OCCNCC)c(I)c1 [MDEA, reference compound]', 12);
